- measured_on: EGFR (Homo sapiens)
- Construct: Kinases are expressed as either kinase domains or full length constructs; made in house
- assay_details: Kinase inhibition assay (33P transfer), EGFR
- Format: biochemical
- setup_conditions: Table 2, kinase inhibition class; read-out: EGFR-1
pIC50: −log10 of the molar value.
What pIC50 was measured for each of the following?

Examples with their reported pIC50 follow.
{"line_notation": "COc1ccc(Sc2ncnc(Nc3cc(OC)c(OC)c(OC)c3)n2)cc1", "measured_property": "pIC50", "endpoint_value": "< 4.95"}
{"line_notation": "COc1cc(Nc2ncnc(Nc3ccc4c(cnn4Cc4ccccc4)c3)n2)cc(OC)c1OCCN1CCOCC1", "measured_property": "pIC50", "endpoint_value": "> 6.16"}
{"line_notation": "COc1cc(Nc2ncnc(-n3c(NCc4ccccc4Cl)nc4ccccc43)n2)cc(OC)c1OC", "measured_property": "pIC50", "endpoint_value": "< 5.06"}
{"line_notation": "C=CCNc1nc2ccccc2n1-c1ncnc(Nc2cc(OC)c(OC)c(OC)c2)n1", "measured_property": "pIC50", "endpoint_value": "< 4.98"}

List reported pIC50 for each of these compounds:
1. COc1cc(Nc2ncnc(-n3c(N[C@H](CO)c4ccccc4)nc4ccccc43)n2)cc(OC)c1OC
2. COc1ccc(Nc2ncnc(-n3cccc3)n2)c(OC)c1
3. CN(c1cccc(Cl)c1)c1ncnc(NC2CCN(Cc3ccccc3)CC2)n1
4. COc1cc(Nc2ncnc(-c3cc4ccccc4s3)n2)cc(OC)c1OC

[out]
["< 5.06", "< 4.82", "5.23 to 6.01", "< 4.94"]

###

- measured_on: EGFR (Homo sapiens, UniProt P00533)
- Construct: Kinases are expressed as either kinase domains or full length constructs; made in house
- Sequence (P00533 25-1210, species assumed): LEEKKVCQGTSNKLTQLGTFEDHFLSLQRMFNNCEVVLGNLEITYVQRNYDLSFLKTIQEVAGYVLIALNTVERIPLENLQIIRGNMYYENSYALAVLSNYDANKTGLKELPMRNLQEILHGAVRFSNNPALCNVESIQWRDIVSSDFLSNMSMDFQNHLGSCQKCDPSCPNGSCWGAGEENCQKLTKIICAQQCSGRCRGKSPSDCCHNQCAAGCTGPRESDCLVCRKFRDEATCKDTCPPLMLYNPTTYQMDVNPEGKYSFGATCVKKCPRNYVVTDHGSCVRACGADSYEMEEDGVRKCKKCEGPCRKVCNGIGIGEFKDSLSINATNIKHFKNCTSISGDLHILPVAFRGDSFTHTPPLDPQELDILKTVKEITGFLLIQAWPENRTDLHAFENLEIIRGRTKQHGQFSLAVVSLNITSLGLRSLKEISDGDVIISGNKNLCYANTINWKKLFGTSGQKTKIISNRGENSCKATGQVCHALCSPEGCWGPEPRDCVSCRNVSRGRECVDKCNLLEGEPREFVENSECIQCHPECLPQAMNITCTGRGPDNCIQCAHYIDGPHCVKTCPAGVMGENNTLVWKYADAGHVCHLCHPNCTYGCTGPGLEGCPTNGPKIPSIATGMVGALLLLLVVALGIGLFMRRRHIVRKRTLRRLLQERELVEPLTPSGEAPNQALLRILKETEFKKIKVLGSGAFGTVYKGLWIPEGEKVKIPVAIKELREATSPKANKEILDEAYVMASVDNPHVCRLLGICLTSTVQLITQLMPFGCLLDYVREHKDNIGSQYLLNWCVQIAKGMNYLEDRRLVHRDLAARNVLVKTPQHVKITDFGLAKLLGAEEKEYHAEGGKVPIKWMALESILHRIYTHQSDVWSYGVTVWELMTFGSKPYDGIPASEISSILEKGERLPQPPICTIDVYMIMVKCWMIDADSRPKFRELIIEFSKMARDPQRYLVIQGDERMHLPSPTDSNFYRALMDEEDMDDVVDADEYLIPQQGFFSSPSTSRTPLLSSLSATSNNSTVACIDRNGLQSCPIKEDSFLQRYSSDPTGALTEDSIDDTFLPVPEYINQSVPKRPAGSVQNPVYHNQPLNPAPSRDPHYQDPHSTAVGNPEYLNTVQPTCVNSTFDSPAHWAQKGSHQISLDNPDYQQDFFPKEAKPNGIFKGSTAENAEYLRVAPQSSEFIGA
- assay_details: Kinase inhibition assay (33P transfer), EGFR
- Type: biochemical
- setup_conditions: Table 2, class symbols A-E; read-out: EGFR-1
pIC50: −log10 of the molar value.
measured_property: pIC50

{"line_notation": "CN(c1ccc2c(cnn2Cc2ccccc2)c1)c1ncnc(Nc2cccc(Br)c2)n1", "pIC50": "> 6.08"}
{"line_notation": "COc1cc(Nc2ncnc(-c3cccnc3NC3CCCCC3)n2)cc(OC)c1OC", "pIC50": "< 4.99"}
{"line_notation": "c1coc(-c2cc(Nc3ncnc(Nc4ccc(-c5csnn5)cc4)n3)n[nH]2)c1", "pIC50": "5.23 to 6.00"}
{"line_notation": "CCOc1cccc(Nc2ncnc(N3CCCc4cc(C)ccc43)n2)c1", "pIC50": "> 5.96"}

Please find the next compound below.
[in] Query pIC50 on EGFR (Homo sapiens, UniProt P00533) for "CC(C)Nc1ncccc1-c1ncnc(Nc2cccc(Cn3ccnn3)c2)n1"
[out] 5.04 to 5.21

###

Measured IC50 on UniProtKB P08631 follows.
Sequence (P08631 whole entry): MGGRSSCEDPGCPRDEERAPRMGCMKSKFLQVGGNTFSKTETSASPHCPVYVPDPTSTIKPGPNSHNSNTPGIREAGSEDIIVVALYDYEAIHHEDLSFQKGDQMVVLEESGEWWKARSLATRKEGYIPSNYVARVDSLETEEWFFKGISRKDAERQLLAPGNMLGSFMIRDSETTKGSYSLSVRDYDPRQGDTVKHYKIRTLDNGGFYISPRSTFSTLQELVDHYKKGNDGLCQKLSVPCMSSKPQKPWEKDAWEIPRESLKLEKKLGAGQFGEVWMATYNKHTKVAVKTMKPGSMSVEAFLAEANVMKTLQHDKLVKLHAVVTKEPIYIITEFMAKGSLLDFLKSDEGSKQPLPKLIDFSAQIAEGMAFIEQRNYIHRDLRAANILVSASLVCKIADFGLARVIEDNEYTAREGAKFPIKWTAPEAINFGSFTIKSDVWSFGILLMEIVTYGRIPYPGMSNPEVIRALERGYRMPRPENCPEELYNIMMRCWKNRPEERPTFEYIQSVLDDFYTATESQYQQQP

Use these answered entries as a reference point.
{"line_notation": "CCOc1ccc(Nc2ncnc(Nc3ccc(C)c(O)c3)n2)cc1OCC", "endpoint_value": "> 11.8 µM"}
{"line_notation": "COc1cc(Nc2ncnc(-n3c(Nc4ccc(C)cc4)nc4ccccc43)n2)cc(OC)c1OC", "endpoint_value": "> 9.31 µM"}
{"line_notation": "COC(=O)c1cccc(Nc2ncnc(Nc3cc(-c4ccco4)n[nH]3)n2)c1", "endpoint_value": "> 11.9 µM"}
{"line_notation": "COc1cc(Nc2ncnc(Nc3cc(-c4ccccc4)n[nH]3)n2)cc(OC)c1OC", "endpoint_value": "5.72 to 8.34 µM"}
{"line_notation": "COc1cc(Nc2ncnc(-n3c(N[C@@H](CO)c4ccccc4)nc4ccccc43)n2)cc(OC)c1OC", "endpoint_value": "> 8.76 µM"}
{"line_notation": "COc1cc(Nc2ncnc(Nc3cccc(F)c3)n2)cc(OC)c1OC", "endpoint_value": "6.46 to 9.42 µM"}
{"line_notation": "COc1cc(Nc2ncnc(-n3c(NCC(C)C)nc4ccccc43)n2)cc(OC)c1OC", "endpoint_value": "> 10 µM"}

API: the following record is the query input.
[in] IC50 for "COc1ccc2c(ccn2-c2ncnc(Nc3cc(OC)c(OC)c(OC)c3)n2)c1" ?
[out] > 11 µM

From: patent US7074789B2
